# System: 282377-053-R-J1-PDC complex spheroid viability
# procedure.summary: Anticancer human tumor 282377-053-R-J1-PDC patient-derived colon adenocarcinoma cell line growth inhibition [POLQ]
# experimental.context: second compound 0.0316 µM; first compound 3.16 µM; active compounds read low
observable: viability, T/C (%)
# value in %; strip the unit string

Use the examples below as a reference point.
- compound: "COc1cc(C2c3cc4c(cc3C(OC3OC5COC(C)OC5C(O)C3O)C3COC(=O)C23)OCO4)cc(OC)c1O (stereo unspecified) + COC1C(OC(N)=O)C(O)C(Oc2ccc3c(O)c(NC(=O)c4ccc(O)c(CC=C(C)C)c4)c(=O)oc3c2C)OC1(C)C"
  assay.value: 78.3
- compound: "C=CC(=O)N1CCN(c2nc(=O)n(-c3c(C)ccnc3C(C)C)c3nc(-c4c(O)cccc4F)c(F)cc23)C(C)C1 (stereo unspecified) + Nc1ccc(C#CCN(C(=O)Cc2ncc(C(F)(F)F)cc2C(F)(F)F)c2ccc(F)cc2)nn1"
  assay.value: 104
- compound: "CC1COCCN1c1cc(C2(S(C)(=N)=O)CC2)nc(-c2ccnc3[nH]ccc23)n1 (stereo unspecified) + Cc1cccc(N(C)C(=O)C2C(O)CCN2c2nc(C)cc(C(F)(F)F)c2C#N)c1"
  assay.value: 66
- compound: "O=C(Nc1ccc(O)c(NS(=O)(=O)c2ccc(F)cc2)c1)c1ccc(-c2ccccc2)cc1 + Cc1cccc(N(C)C(=O)C2C(O)CCN2c2nc(C)cc(C(F)(F)F)c2C#N)c1"
  assay.value: 107
- compound: "CC1COCCN1c1cc(C2(O)CC3CCC(C2)O3)c2cnn(-c3ccn[nH]3)c2n1 (stereo unspecified) + Cc1cccc(N(C)C(=O)C2C(O)CCN2c2nc(C)cc(C(F)(F)F)c2C#N)c1"
  assay.value: 25.5

Okay, now this compound:
So, COc1cc(C2c3cc4c(cc3C(OC3OC5COC(C)OC5C(O)C3O)C3COC(=O)C23)OCO4)cc(OC)c1O (stereo unspecified) + Nc1ccc(C#CCN(C(=O)Cc2ncc(C(F)(F)F)cc2C(F)(F)F)c2ccc(F)cc2)nn1 ? Its viability, T/C was 109

###

# Test system: 282377-053-R-J1-PDC complex spheroid viability
# procedure.summary: Anticancer human tumor 282377-053-R-J1-PDC cell line growth inhibition [POLQ];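 note: spheroids exposed to compounds for seven days; 100% = DMSO vehicle control viability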
# experimental.context: second compound 0.316 µM; first compound 0.0316 µM; active compounds read low
observable: viability, T/C

Use the examples below as a reference point.
- molecule: "COc1ccc([C@@H](O)c2cc(-c3ncnc4cc(N5CCOCC5)ccc34)c(F)cc2Cl)nn1 + Nc1ccc(C#CCN(C(=O)Cc2ncc(C(F)(F)F)cc2C(F)(F)F)c2ccc(F)cc2)nn1"
  viability, T/C: "102%"
- molecule: "Cn1ncnc1[C@H]1c2n[nH]c(=O)c3cc(F)cc(c23)N[C@@H]1c1ccc(F)cc1 + Nc1ccc(C#CCN(C(=O)Cc2ncc(C(F)(F)F)cc2C(F)(F)F)c2ccc(F)cc2)nn1"
  viability, T/C: "97.7%"
- molecule: "COc1ccc([C@@H](O)c2cc(-c3ncnc4cc(N5CCOCC5)ccc34)c(F)cc2Cl)nn1 + Cc1cccc(N(C)C(=O)C2C(O)CCN2c2nc(C)cc(C(F)(F)F)c2C#N)c1"
  viability, T/C: "110%"
- molecule: "CC1COCCN1c1cc(C2(O)CC3CCC(C2)O3)c2cnn(-c3ccn[nH]3)c2n1 (stereo not given) + Nc1ccc(C#CCN(C(=O)Cc2ncc(C(F)(F)F)cc2C(F)(F)F)c2ccc(F)cc2)nn1"
  viability, T/C: "107%"

So, Nc1ccn(C2OC(CO)C(O)C2(F)F)c(=O)n1 (stereo not given) + Nc1ccc(C#CCN(C(=O)Cc2ncc(C(F)(F)F)cc2C(F)(F)F)c2ccc(F)cc2)nn1 ? Its viability, T/C was 115%

###

# System: 282377-053-R-J1-PDC complex spheroid viability
# procedure.summary: Anticancer human tumor 282377-053-R-J1-PDC cell line growth inhibition [POLQ];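 note: spheroids exposed to compounds for seven days; 100% = DMSO vehicle control viability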
# experimental.context: second compound 0.0316 µM; first compound 0.316 µM; active compounds read low
observable: viability, T/C

- compound: "COc1cccc(OCCCN)c1-c1cc(Nc2cnc(C#N)cn2)n[nH]1 + Nc1ccc(C#CCN(C(=O)Cc2ncc(C(F)(F)F)cc2C(F)(F)F)c2ccc(F)cc2)nn1"
  observable: "viability, T/C"
  assay.value: "55.3%"
- compound: "O=C(c1cc(Cc2n[nH]c(=O)c3ccccc23)ccc1F)N1CCN(C(=O)C2CC2)CC1 + Cc1cccc(N(C)C(=O)C2C(O)CCN2c2nc(C)cc(C(F)(F)F)c2C#N)c1"
  observable: "viability, T/C"
  assay.value: "109%"
- compound: "CCc1cc2c(N3CCc4c(cc(Cn5ccnc5)cc4-c4cn(C)nc4C(F)(F)F)C3=O)ccnc2c(OC)n1 + Cc1cccc(N(C)C(=O)C2C(O)CCN2c2nc(C)cc(C(F)(F)F)c2C#N)c1"
  observable: "viability, T/C"
  assay.value: "91%"
- compound: "CNCc1ccc(-c2[nH]c3cc(F)cc4c3c2CCNC4=O)cc1 + COC1C(OC(N)=O)C(O)C(Oc2ccc3c(O)c(NC(=O)c4ccc(O)c(CC=C(C)C)c4)c(=O)oc3c2C)OC1(C)C"
  observable: "viability, T/C"
  assay.value: "106%"
- compound: "Nc1ccn(C2OC(CO)C(O)C2(F)F)c(=O)n1 (stereo unspecified) + Cc1cccc(N(C)C(=O)C2C(O)CCN2c2nc(C)cc(C(F)(F)F)c2C#N)c1"
  observable: "viability, T/C"
  assay.value: "35.2%"
- compound: "O=c1[nH]cc(F)c(=O)[nH]1 + Nc1ccc(C#CCN(C(=O)Cc2ncc(C(F)(F)F)cc2C(F)(F)F)c2ccc(F)cc2)nn1"
  observable: "viability, T/C"
  assay.value: "142%"

So, C=CC(=O)N1CCN(c2nc(=O)n(-c3c(C)ccnc3C(C)C)c3nc(-c4c(O)cccc4F)c(F)cc23)C(C)C1 (stereo unspecified) + Cc1cccc(N(C)C(=O)C2C(O)CCN2c2nc(C)cc(C(F)(F)F)c2C#N)c1 ? Its viability, T/C was 119%

So, C=CCn1c(=O)c2cnc(Nc3ccc(N4CCN(C)CC4)cc3)nc2n1-c1cccc(C(C)(C)O)n1 + Nc1ccc(C#CCN(C(=O)Cc2ncc(C(F)(F)F)cc2C(F)(F)F)c2ccc(F)cc2)nn1 ? Its viability, T/C was 81.8%

###

# Test system: 282377-053-R-J1-PDC complex spheroid viability
# procedure.summary: Anticancer human tumor 282377-053-R-J1-PDC cell line growth inhibition [POLQ];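 note: spheroids exposed to compounds for seven days; 100% = DMSO vehicle control viability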
# experimental.context: second compound 1 µM; first compound 1 µM; active compounds read low
# viability, T/C listing for each entry below
# value in %; strip the unit string

So, CCc1cc2c(N3CCc4c(cc(Cn5ccnc5)cc4-c4cn(C)nc4C(F)(F)F)C3=O)ccnc2c(OC)n1 + COC1C(OC(N)=O)C(O)C(Oc2ccc3c(O)c(NC(=O)c4ccc(O)c(CC=C(C)C)c4)c(=O)oc3c2C)OC1(C)C ? Its viability, T/C was 134

So, Nc1ccn(C2OC(CO)C(O)C2(F)F)c(=O)n1 (centres undefined) + Cc1cccc(N(C)C(=O)C2C(O)CCN2c2nc(C)cc(C(F)(F)F)c2C#N)c1 ? Its viability, T/C was 30.4

So, C#Cc1c(F)ccc2cc(O)cc(-c3ncc4c(N5CC6CCC(C5)N6)nc(OCC56CCCN5CC(F)C6)nc4c3F)c12 (centres undefined) + COC1C(OC(N)=O)C(O)C(Oc2ccc3c(O)c(NC(=O)c4ccc(O)c(CC=C(C)C)c4)c(=O)oc3c2C)OC1(C)C ? Its viability, T/C was 82.5

So, COc1cc2cc(C(=O)CCC(=O)O)sc2cc1OC + Cc1cccc(N(C)C(=O)C2C(O)CCN2c2nc(C)cc(C(F)(F)F)c2C#N)c1 ? Its viability, T/C was 107

###

# Tested on: 282377-053-R-J1-PDC complex spheroid viability
# procedure.summary: Anticancer human tumor 282377-053-R-J1-PDC cell line growth inhibition [POLQ];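 note: spheroids exposed to compounds for seven days; 100% = DMSO vehicle control viability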
# experimental.context: second compound 0.0316 µM; first compound 0.1 µM; active compounds read low
# Experimental: Multicellular complex tumor spheroid response to Polymerase (POL) inhibitors (novobiocin, ART-558, RP6685) in combination with a variety of drugs and investigational agents in selected tumor cell lines The POL inhibitors (novobiocin, ART-558, and RP6685) were evaluated both individually and in combination with standard of care and investigational anticancer small molecules within a complex spheroid model of solid tumors. . […]
observable: viability, T/C

Use the examples below as a reference point.
- compound: "CCCS(=O)(=O)Nc1ccc(F)c(C(=O)c2c[nH]c3ncc(-c4ccc(Cl)cc4)cc23)c1F + Nc1ccc(C#CCN(C(=O)Cc2ncc(C(F)(F)F)cc2C(F)(F)F)c2ccc(F)cc2)nn1"
  subject.of.test: "282377-053-R-J1-PDC complex spheroid viability"
  viability, T/C: "77%"
- compound: "O=C(c1cc(Cc2n[nH]c(=O)c3ccccc23)ccc1F)N1CCN(C(=O)C2CC2)CC1 + COC1C(OC(N)=O)C(O)C(Oc2ccc3c(O)c(NC(=O)c4ccc(O)c(CC=C(C)C)c4)c(=O)oc3c2C)OC1(C)C"
  subject.of.test: "282377-053-R-J1-PDC complex spheroid viability"
  viability, T/C: "97.7%"
- compound: "CNCc1ccc(-c2[nH]c3cc(F)cc4c3c2CCNC4=O)cc1 + COC1C(OC(N)=O)C(O)C(Oc2ccc3c(O)c(NC(=O)c4ccc(O)c(CC=C(C)C)c4)c(=O)oc3c2C)OC1(C)C"
  subject.of.test: "282377-053-R-J1-PDC complex spheroid viability"
  viability, T/C: "118%"

So, CC1COCCN1c1cc(C2(S(C)(=N)=O)CC2)nc(-c2ccnc3[nH]ccc23)n1 (stereo not given) + Nc1ccc(C#CCN(C(=O)Cc2ncc(C(F)(F)F)cc2C(F)(F)F)c2ccc(F)cc2)nn1 ? Its viability, T/C was 96.5%

So, COc1cc2cc(C(=O)CCC(=O)O)sc2cc1OC + Cc1cccc(N(C)C(=O)C2C(O)CCN2c2nc(C)cc(C(F)(F)F)c2C#N)c1 ? Its viability, T/C was 112%
